target: human IL-21R expressed on cells (human, UniProt Q9HBE5 20-538); assay: cell-based or functional assay
Sequence (Q9HBE5 20-538 limits assumed): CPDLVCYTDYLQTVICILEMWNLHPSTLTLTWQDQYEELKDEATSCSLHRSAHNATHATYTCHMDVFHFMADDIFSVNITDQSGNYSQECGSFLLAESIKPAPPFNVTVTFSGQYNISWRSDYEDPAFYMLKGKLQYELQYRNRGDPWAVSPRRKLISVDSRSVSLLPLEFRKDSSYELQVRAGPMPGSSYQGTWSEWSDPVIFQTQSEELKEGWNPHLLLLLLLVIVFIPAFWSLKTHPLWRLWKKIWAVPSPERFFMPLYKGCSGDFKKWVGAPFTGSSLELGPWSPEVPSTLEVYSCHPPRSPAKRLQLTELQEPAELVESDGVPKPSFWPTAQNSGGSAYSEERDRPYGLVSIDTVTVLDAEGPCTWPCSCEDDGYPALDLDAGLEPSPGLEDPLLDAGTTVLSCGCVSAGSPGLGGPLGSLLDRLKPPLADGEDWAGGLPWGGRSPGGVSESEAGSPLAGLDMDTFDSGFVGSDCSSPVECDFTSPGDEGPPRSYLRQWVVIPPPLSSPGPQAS
Measure: IC50, Human IL-21R-TF1 Neutralization Assay

| Binder | Result |
| --- | --- |
| scFv H4 (scFv) scFv: QVQLQESGPGLVKTSETLSLTCAVSGYSISSGYYWGWIRQPPGKGLEWIGSISHTGNTYYNPPLKSRVTISVDTSKNQFSLKLSSVTAADTAVYYCARWLGFGRPEYWGKGTLVTVSSGGGGSGGGGSGGGGSALSSELTQDPPVSVALGQTVTLTCQGDSLRTYYASWYQQKSGQAPILLLYGKHKRPSGIPDRFSGSTSGDTASLTITGAQAEDEADYYCNSRDSSGNPHVLFGGGTQLTVL | 9.3 nM |
| scFv H3 (scFv) scFv: QVQLQESGPGLVKTSETLSLTCAVSGYSISSGYYWGWIRQPPGKGLEWIGSISHTGNTYYNPPLKSRVTISVDTSKNQFSLKLSSVTAADTAVYYCARFMGFGRPEYWGKGTLVTVSSGGGGSGGGGSGGGGSALSSELTQDPPVSVALGQTVTLTCQGDSLRTYYASWYQQKSGQAPILLLYGKHKRPSGIPDRFSGSTSGDTASLTITGAQAEDEADYYCNSRDSSGNPHVLFGGGTQLTVL | 98.1 nM |

Provenance of the data: patent US20120276102A1
